All values here come from ChEMBL document CHEMBL1130448.

Form: system (Cholesteryl ester transfer protein (Homo sapiens)), quantity (pIC50), values below.
Answers are plain numbers, as −log10 of the molar value.

CCCCCCCCCCCCC/C=C/[C@@H](O)[C@@H](N)CO [SPHINGOSINE] : 4.94

// for each compound below, give its pIC50
1. CC(C)CNC(=O)/C=C/[C@@H]1C[C@H]1[C@@H]1C[C@H]1[C@@H]1C[C@H]1[C@@H]1C[C@H]1[C@@H]1C[C@H]1/C=C/[C@@H]1C[C@H]1C
2. CCCCCCCCCCCCC/C=C/[C@@H](O)[C@H](CO)NC(=O)CCCCCCCCCCCCCCC
3. CCCCCCCCCCCCC/C=C/[C@@H](O)[C@@H](N)COP(=O)([O-])OCC[N+](C)(C)C [SPHINGOSYLPHOSPHORYLCHLOLINE]
4. CCCCCCCCCCCCCCC[C@@H](O)[C@@H](N)CO (racemic) [DIHYDROSPINGOSINE]

Return:
4.60
4.18
3.80
4.89
